- Test system: SARS-CoV-2 isolate EGY/WAT-2 VACCERA
- measurement_notes: microbe, parasite or virus in culture
- Type: cell-based
- cond: ratio of the inhibition % of the tested compound to that of Remdesivir at 10 μM; 1 = identical effect

{"compound": "O=C1c2ccccc2C(=O)N1/N=C/c1ccc(OCc2cn(-c3ccccc3F)nn2)cc1", "(API) Antiviral potency index": 0.98}
{"compound": "O=C(Cn1cc(COc2ccc(/C=N/N3C(=O)c4ccccc4C3=O)cc2)nn1)Nc1ccc(C(=O)O)cc1", "(API) Antiviral potency index": 0.98}
{"compound": "CC(=O)c1ccc(-n2cc(COc3ccc(/C=N/N4C(=O)c5ccccc5C4=O)cc3)nn2)cc1", "(API) Antiviral potency index": 0.96}
{"compound": "Cc1ccc(CNC(=O)Cn2cc(COc3ccc(/C=N/N4C(=O)c5ccccc5C4=O)cc3)nn2)cc1", "(API) Antiviral potency index": 0.92}
{"compound": "CCOC(=O)c1ccc(-n2cc(COc3ccc(/C=N/N4C(=O)c5ccccc5C4=O)cc3)nn2)cc1", "(API) Antiviral potency index": 0.91}
{"compound": "O=C(O)c1ccc(-n2cc(COc3ccc(/C=N/N4C(=O)c5ccccc5C4=O)cc3)nn2)cc1", "(API) Antiviral potency index": 0.91}
{"compound": "CC(=O)OC[C@@H]1O[C@H](n2cc(COc3ccc(/C=N/N4C(=O)c5ccccc5C4=O)cc3)nn2)[C@@H](OC(C)=O)[C@H](OC(C)=O)[C@@H]1OC(C)=O [Compound 10b]", "(API) Antiviral potency index": 0.90}
{"compound": "O=C(Cn1cc(COc2ccc(/C=N/N3C(=O)c4ccccc4C3=O)cc2)nn1)Nc1ccc(F)cc1", "(API) Antiviral potency index": 0.96}
{"compound": "O=C1c2ccccc2C(=O)N1/N=C/c1ccc(OCc2cn(-c3ccc(Cl)c(Cl)c3)nn2)cc1", "(API) Antiviral potency index": 0.96}
{"compound": "CC(=O)OC[C@@H]1O[C@H](n2cc(COc3ccc(/C=N/N4C(=O)c5ccccc5C4=O)cc3)nn2)[C@@H](OC(C)=O)[C@H](OC(C)=O)[C@H]1OC(C)=O [Compound 10a]", "(API) Antiviral potency index": 0.92}
{"compound": "O=C(Cn1cc(COc2ccc(/C=N/N3C(=O)c4ccccc4C3=O)cc2)nn1)NCc1ccc(Cl)cc1", "(API) Antiviral potency index": 0.95}
{"compound": "O=C(Cn1cc(COc2ccc(/C=N/N3C(=O)c4ccccc4C3=O)cc2)nn1)Nc1ccc(I)cc1F", "(API) Antiviral potency index": 0.96}
{"compound": "O=C(Cn1cc(COc2ccc(/C=N/N3C(=O)c4ccccc4C3=O)cc2)nn1)NCc1ccc(F)cc1", "(API) Antiviral potency index": 0.97}
{"compound": "O=C(Cn1cc(COc2ccc(/C=N/N3C(=O)c4ccccc4C3=O)cc2)nn1)Nc1ccc([N+](=O)[O-])cc1", "(API) Antiviral potency index": 0.98}
{"compound": "O=C1c2ccccc2C(=O)N1/N=C/c1ccc(OCc2cn(-c3ccc(F)cc3)nn2)cc1", "(API) Antiviral potency index": 0.96}
{"compound": "O=C(Cn1cc(COc2ccc(/C=N/N3C(=O)c4ccccc4C3=O)cc2)nn1)Nc1ccccc1I", "(API) Antiviral potency index": 0.97}
